Reference source for all entries: paper PMC6128612

Below, each entry is listed with its recorded EC50.
Test system: Mouse bone marrow derived macrophages (BMDM)
Test: Mouse macrophage differentiation assay (CSF-induced)
Assay type: cell-based
Details: Mus musculus, adjusted for binding in 10% FBS, read-out: Cellular EC50 corrected for binding in 10% FBS
Experimental: Mouse bone marrow derived macrophages (BMDM) were isolated as previously described[53] from C57BL/6 female mice. […] Cells were counted, re-suspended in growth medium, and plated at 1x10^5 viable cells per well in a 96 well plate (Corning cat# 3603). […] Plates were covered from the light and incubated at room temperature for 10 minutes before reading the luminescence on an EnVision plate reader (PerkinElmer).
Hi! Could you send only the number? It should be in µg/mL, unit omitted.

compound | measurement.kind | recorded.number
O=C(O)[C@H]1CC[C@H](n2cc(Nc3nc(C4CCCCC4)cn4ncnc34)cn2)CC1 [Compound 6] | EC50 | 0.042
OCCn1cc(Nc2nc(C3CCCCC3)cn3ncnc23)cn1 [Compound 4] | EC50 | 0.019

Entry CC(C)(O)CCn1cc(Nc2nc(C3CCCCC3)cn3ncnc23)cn1 [Compound 5] has what EC50? 0.021

# repeat for O[C@H]1CC[C@H](n2cc(Nc3nc(C4CCCCC4)cn4ncnc34)cn2)CC1 [Compound 1] 0.022
